The reported numbers originate from patent US11306078B2.

# STUDY_TARGET: human chemokine receptor CXCR7 (Homo sapiens (Human))
# PROTOCOL_DESCRIPTION: Tango CXCR7-bla U2OS beta-arrestin recruitment assay (beta-lactamase reporter, FRET), antagonism of CXCL12/SDF1-α
# Format: cell-based
# SETUP_CONDITIONS: antagonistic effect on CXCR7; Tango CXCR7-bla U2OS cells, CXCL12/SDF1-α at its EC80
MEASURED_ATTRIBUTE: IC50 (nM)

[[record]]
compound = "Cc1ncsc1CNC(=O)[C@@H]1CN(C2CCCCC2)CC[C@H]1NC(=O)c1cc(-c2ccc(F)cc2F)on1 (racemic) [Example 1.033]"
measured_attribute = "IC50"
reading_unit = "nM"
observed = 591

[[record]]
compound = "COCC(C)(C)NC(=O)[C@@H]1CN(CC2CC2)CC[C@H]1NC(=O)c1cc(-c2ccc(F)cc2F)no1 (racemic) [Example 1.151]"
measured_attribute = "IC50"
reading_unit = "nM"
observed = 554

[[record]]
compound = "O=C(N[C@@H]1CCN(C2CCCCC2)C[C@H]1C(=O)NCCF)c1cc(-c2ccc(F)cc2F)on1 (racemic) [Example 1.011]"
measured_attribute = "IC50"
reading_unit = "nM"
observed = 282

[[record]]
compound = "Cc1cc(CNC(=O)[C@@H]2CN(C3CCCCC3)CC[C@H]2NC(=O)c2cc(-c3ccc(F)cc3F)on2)no1 (racemic) [Example 1.022]"
measured_attribute = "IC50"
reading_unit = "nM"
observed = 198

[[record]]
compound = "O=C(N[C@@H]1CCN(C2CCCCC2)C[C@H]1C(=O)NC1(c2ccccn2)CC1)c1cn(-c2ccc(F)cc2F)nn1 (racemic) [Example 1.165]"
measured_attribute = "IC50"
reading_unit = "nM"
observed = 92

[[record]]
compound = "O=C(N[C@@H]1CCN(CC2CC2)C[C@H]1C(=O)NC1(c2ccccn2)CC1)c1cc(-c2ccccc2F)on1 (racemic) [Example 3.013]"
measured_attribute = "IC50"
reading_unit = "nM"
observed = 153


----------
# STUDY_TARGET: human chemokine receptor CXCR7 (Homo sapiens (Human), UniProt P25106)
# Sequence (P25106 whole entry): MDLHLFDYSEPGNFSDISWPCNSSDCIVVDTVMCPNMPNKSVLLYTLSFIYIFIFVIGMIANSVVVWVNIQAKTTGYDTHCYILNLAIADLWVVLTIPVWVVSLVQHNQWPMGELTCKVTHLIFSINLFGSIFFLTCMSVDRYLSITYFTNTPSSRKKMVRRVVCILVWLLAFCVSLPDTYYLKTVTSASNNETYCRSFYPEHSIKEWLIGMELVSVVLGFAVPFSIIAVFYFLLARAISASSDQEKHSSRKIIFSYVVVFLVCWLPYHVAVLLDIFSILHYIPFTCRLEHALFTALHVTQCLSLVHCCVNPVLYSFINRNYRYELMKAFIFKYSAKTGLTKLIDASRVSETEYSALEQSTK
# PROTOCOL_DESCRIPTION: Tango CXCR7-bla U2OS beta-arrestin recruitment assay (beta-lactamase reporter, FRET), antagonism of CXCL12/SDF1-α;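 also: compounds preincubated 15 min before CXCL12 addition, then 22 h at 37 °C, FRET emission ratio read with CCF4-AM substrate after 2 h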
# Format: cell-based
# SETUP_CONDITIONS: antagonistic effect on CXCR7; Tango CXCR7-bla U2OS cells, CXCL12/SDF1-α at its EC80
Output: class label from IC50. Mapping: lo (below 100 nM), med (100 nM to below 600 nM), hi (600 nM or more)

[[record]]
compound = "C[C@@H](NC(=O)[C@@H]1CN(C2CCCC2)CC[C@H]1NC(=O)c1cc(-c2c(F)cc(F)cc2F)on1)C1CCC1 (racemic) [Example 1.138]"
qualitative_label = "hi"

[[record]]
compound = "O=C(N[C@@H]1CCN(CC2CC2)C[C@H]1C(=O)NC1(c2ccccn2)CC1)c1cn(-c2ccc(F)cc2F)nn1 (racemic) [Example 1.167]"
qualitative_label = "med"

[[record]]
compound = "O=C(N[C@H]1CCN(C2CC3(CC3)C2)C[C@@H]1C(=O)NC1(c2ncccn2)CC1)c1cc(-c2ccc(F)cc2F)on1 [Example 2.103]"
qualitative_label = "lo"

[[record]]
compound = "C[C@@H]1CCC[C@H]1N1CC[C@@H](NC(=O)c2cn(-c3ccc(F)cc3F)nn2)[C@H](C(=O)NC2(c3ccccn3)CC2)C1 (relative stereo) [Example 1.168]"
qualitative_label = "hi"

[[record]]
compound = "CC(NC(=O)[C@H]1CN(C2CCCCC2)CC[C@@H]1NC(=O)c1cc(-c2ccc(F)cc2F)on1)c1ccc(F)cn1 (stereo partly shown) [Example 4.008]"
qualitative_label = "med"

[[record]]
compound = "CN(C)CCNC(=O)[C@@H]1CN(C2CCCCC2)CC[C@H]1NC(=O)c1cc(-c2ccc(F)cc2F)on1 (racemic) [Example 1.023]"
qualitative_label = "hi"

[[record]]
compound = "CC(C)(CNC(=O)[C@@H]1CN(C2CCC2)CC[C@H]1NC(=O)c1cc(-c2ccc(F)cc2F)on1)c1ccccc1Cl [Example 4.091]"
qualitative_label = "med"

[[record]]
compound = "O=C(N[C@H]1CCN(CC2CC2)C[C@@H]1C(=O)NC1(C2CC2)CC1)c1cc(-c2ccc(F)cc2F)on1 [Example 4.045]"
qualitative_label = "med"

[[record]]
compound = "O=C(N[C@H]1CCNC[C@@H]1C(=O)NC1(c2ncccn2)CC1)c1ncc(-c2ccc(F)cc2F)o1 [Example 2.096]"
qualitative_label = "hi"

[[record]]
compound = "CCN(C)C(=O)[C@@H]1CN(C2CCCC2)CC[C@H]1NC(=O)c1cc(-c2ccc(F)cc2F)on1 [Example 2.076]"
qualitative_label = "lo"

[[record]]
compound = "O=C(N[C@@H]1CCN(C2CCC2)C[C@H]1C(=O)NC1(c2ccc(F)cc2)COC1)c1cc(-c2ccc(F)cc2F)on1 [Example 4.089]"
qualitative_label = "med"

